B1: MXI1 peptide 4-19 (Max-interacting protein 1), 16-mer library wild type / SIN3A PAH2 (SIN3A PAH domain, residues 295-383) (parent)
chain 1: VKMINVQRLLEAAEFL
chain 2: SLQNNQPVEFNHAINYVNKIKNRFQGQPDIYKAFLEILHTYQKEQRNAKEAGGNYTPALTEQEVYAQVARLFKNQEDLLSEFGQFLPDA

- Variants of: B1
- TEST_SUMMARY: proteomic peptide phage display deep mutational scan (ProP-PD DMS): M13 P8 16-mer library selected against immobilised GST-tagged bait for four days (rounds), NGS of the eluted pools per day and pseudo-replica
- STUDY_CONDITIONS: with SIN3A PAH2 (SIN3A PAH domain, residues 295-383); bait immobilised on MaxiSorp plates (10 µg), library pre-cleared on GST, 2 h binding at 4 °C, five washes; one round per day, days 1-4; value from days 2 and 3; keep out of graded; scale: average fractional NGS count over selection days 2 and 3
Lab note: anything with screen value at or over 0.0001 counts as class 1; the rest go in class 0.

{"VARIANT_SPEC": "chain 1 N5G", "GROUP": "class 1"}
{"VARIANT_SPEC": "chain 1 L16T", "GROUP": "class 0"}
{"VARIANT_SPEC": "chain 1 E14D", "GROUP": "class 1"}
{"VARIANT_SPEC": "chain 1 E11P", "GROUP": "class 0"}
{"VARIANT_SPEC": "chain 1 R8K", "GROUP": "class 1"}
{"VARIANT_SPEC": "chain 1 F15V", "GROUP": "class 0"}
{"VARIANT_SPEC": "chain 1 V6I", "GROUP": "class 1"}
{"VARIANT_SPEC": "chain 1 I4N", "GROUP": "class 1"}
{"VARIANT_SPEC": "chain 1 R8I", "GROUP": "class 1"}
{"VARIANT_SPEC": "chain 1 E14V", "GROUP": "class 1"}
{"VARIANT_SPEC": "chain 1 V6Q", "GROUP": "class 0"}
{"VARIANT_SPEC": "chain 1 L16N", "GROUP": "class 0"}
{"VARIANT_SPEC": "chain 1 A13I", "GROUP": "class 1"}
{"VARIANT_SPEC": "chain 1 F15Y", "GROUP": "class 1"}
{"VARIANT_SPEC": "chain 1 Q7T", "GROUP": "class 1"}
{"VARIANT_SPEC": "chain 1 K2M", "GROUP": "class 1"}
{"VARIANT_SPEC": "chain 1 N5F", "GROUP": "class 1"}
{"VARIANT_SPEC": "chain 1 L9G", "GROUP": "class 0"}
{"VARIANT_SPEC": "chain 1 F15T", "GROUP": "class 0"}
{"VARIANT_SPEC": "chain 1 K2N", "GROUP": "class 1"}
{"VARIANT_SPEC": "chain 1 E14M", "GROUP": "class 1"}
{"VARIANT_SPEC": "chain 1 R8V", "GROUP": "class 0"}
